# ASSAY REMARKS: Quantitative High-Throughput drug screen in 47 multiple myeloma cell lines against the NCATS MIPE library collection: JIM3_ECACC cell viability assay (AID 1918963; also: nearly all actives have a fitted effect of over 35% in size)
# RECORDED CONDITIONS: JIM3 myeloma viability, CellTiter-Glo ATP, 48 h; series mostly up to 45.8 µM
Records with an inconclusive call do not appear. Activity calls are given as the source filed them. Calls follow the shape of the dose curve; as a rule, active = well fitted cell-killing curve with a large enough effect; inconclusive = small, poorly fitted or top-dose-only effect; inactive = no such curve, though single readings can be large or run the other way.
// one of active, inactive, no free text

Returns: the outcome recorded for COC(=O)C1C2CC3c4[nH]c5cc(OC)ccc5c4CCN3CC2CC(OC(=O)c2cc(OC)c(OC)c(OC)c2)C1OC (centres undefined) in this assay.
active

Call for entry `COc1cc(C)c(C=CC(C)=CC=CC(C)=CC(=O)O)c(C)c1C` :
active

In this assay, the call recorded for CC(=O)SCC(Cc1ccccc1)C(=O)NCC(=O)OCc1ccccc1 (centres undefined) was what?
active

What classification did `N#CC(=C(N)Sc1ccc(N)cc1)c1ccccc1C(F)(F)F` end up with in this test?
active

What call does the record list for `COC(=O)[C@@H]1CC2=CC(=O)CC[C@]2(C)[C@@]23O[C@@H]2C[C@@]2(C)[C@H](CC[C@@]24CCC(=O)O4)[C@@H]13` ?
inactive

Answer briefly: the call reported for `O=c1ccn([C@@H]2O[C@H](CO)[C@H](O)[C@@H]2F)c(=O)[nH]1` in this assay.
inactive

Please state the recorded outcome for this compound: `COc1ccc(Nc2nccc(NCCO)n2)cc1`
inactive

Hi, sorry to bother you, what did the test record for `O=C(O)C[C@H](O)C[C@H](O)C=Cc1c(C2CC2)nc2ccccc2c1-c1ccc(F)cc1` ?
active

Fill in: this test's call for `Cc1cnc(Nc2ccc(CN3CCOCC3)cc2)nc1Nc1cccc(S(=O)(=O)NC(C)(C)C)c1` is ___
active

###

# Tested on: CP250
# ASSAY REMARKS: qHTS profiling for inhibitors of Plasmodium falciparum proliferation (AID 504749); also: nearly all actives have a fitted effect of over 60% in size
# RECORDED CONDITIONS: P. falciparum in erythrocytes, SYBR Green DNA, 72 h; series mostly up to 28.7 µM
Records with an inconclusive call do not appear. Active and inactive are the calls of the source. Calls follow the shape of the dose curve; as a rule, active = well fitted inhibition curve with a large enough effect; inconclusive = small, poorly fitted or top-dose-only effect; inactive = flat fitted curve, though single readings scatter.
Use one of these outcomes when replying: TRUE = active, FALSE = inactive

Just curious, what result did COc1cccc2c1C(=O)c1c(O)c3c(c(O)c1C2=O)C[C@@](O)(C(=O)CO)C[C@@H]3O[C@H]1C[C@H](N)[C@H](OC2CCCCO2)[C@H](C)O1 (some centres undefined) get here?
TRUE

Identify the outcome logged in this assay for the molecule shown: CCCCCCCCCCCC(CC1OC(=O)C1CCCCCC)OC(=O)C(CC(C)C)NC=O (centres undefined)
TRUE

Look up the recorded call for OCC(O)C(O)C(O)CO (centres undefined) in this test.
FALSE

Would you mind telling me which call this test gave COc1ccc2c(c1OC)C(=O)OC2[C@H]1c2c(cc3c(c2OC)OCO3)CCN1C (some centres undefined) ?
FALSE

###

# ASSAY REMARKS: Quantitative High-Throughput drug screen in 47 multiple myeloma cell lines against the NCATS MIPE library collection: KMM1_JCRB cell viability assay (AID 1918960); also: nearly all actives have a fitted effect of over 30% in size; also: potency is read from the fitted curve at half-maximal effect
# RECORDED CONDITIONS: KMM1 myeloma viability, CellTiter-Glo ATP luminescence, 48 h; series mostly up to 45.8 µM
Records with an inconclusive call do not appear. Active and inactive are the calls of the source. Calls come from the whole dose curve; as a rule, active = well fitted cell-killing curve with a large enough effect; inconclusive = small, poorly fitted or top-dose-only effect, or effect the other way; inactive = no such curve, though single readings can be large or run the other way.
REPORTED METRIC: Potency

COMPOUND	OBSERVED RESULT
C=C(C)[C@@H]1CC[C@]2(C(=O)O)CC[C@]3(C)[C@H](CC[C@@H]4[C@@]5(C)CC[C@H](O)C(C)(C)[C@@H]5CC[C@]43C)[C@@H]12	inactive
Oc1ccc(-c2ccc(-c3cc(Nc4cccc(CNC5CC5)c4)n[nH]3)cc2)c(O)c1	743 nM (active)
OCCNC1CCCc2c1[nH]c1ccc(-c3ccccc3)cc21 (stereo unspecified)	18700 nM (active)
COC1=C(OC)C(=O)C(CC=C(C)CCC=C(C)CCC=C(C)CCC=C(C)CCC=C(C)CCC=C(C)CCC=C(C)CCC=C(C)CCC=C(C)CCC=C(C)C)=C(C)C1=O	inactive
CN[C@H]1[C@@H](O)[C@@H]2O[C@@H]3O[C@H](C)CC(=O)[C@]3(O)O[C@@H]2[C@@H](NC)[C@H]1O	372 nM (active)
CCS(=O)(=O)Nc1ccc2[nH]c(O)c(C(=Nc3ccc(CN4CCCCC4)cc3)c3ccccc3)c2c1	3720 nM (active)
CN(C)CCN1C(=O)c2cccc3cc(N)cc(c23)C1=O	18700 nM (active)
CCc1c(O)cc(O)c(C(=O)c2ccc(OCCN3CCOCC3)c(OC)c2)c1CC(=O)N(CCOC)CCOC	935 nM (active)
COc1cccc2c1C(=O)c1c(O)c3c(c(O)c1C2=O)C[C@@](O)(C(=O)CO)C[C@@H]3O[C@H]1C[C@H](N)[C@H](OC2CCCCO2)[C@H](C)O1 (stereo partly specified)	inactive
Cn1cc(CNCC2CCN(c3ncc(C(=O)NO)cn3)CC2)c2ccccc21	41.8 nM (active)

Using the record for `COc1ccc(C[C@@H](C)[C@@H](C)Cc2ccc(OC)c(OC)c2)cc1OC` , report its Potency.
235 nM (active)

Query: Potency; subject: `CC(C=CC(=O)NO)=C[C@@H](C)C(=O)c1ccc(N(C)C)cc1`
209 nM (active)

Using the record for Nc1nc(=O)n([C@H]2CSC(CO)O2)cc1F (stereo partly specified) , report its Potency.
inactive

Look at this compound and give its reported Potency. `CCN(CC)CCCCNc1ncc2c(n1)N(C)C(=O)N(c1c(Cl)c(OC)cc(OC)c1Cl)C2`
inactive

I would be grateful if you could share the reported Potency for `COc1cc(CCc2cc(NC(=O)c3ccc(N4C[C@@H](C)N[C@@H](C)C4)cc3)n[nH]2)cc(OC)c1` .
18700 nM (active)

# query: Potency of entry `CC[C@]12C=CCN3CC[C@@]4(c5cc([C@@]6(C(=O)OC)C[C@H]7C[C@@H](C(C)(F)F)CN(Cc8c6[nH]c6ccccc86)C7)c(OC)cc5N(C)[C@H]4[C@@](O)(C(=O)OC)[C@H]1OC(C)=O)[C@@H]32`
8.3 nM (active)

###

# ASSAY REMARKS: Quantitative High-Throughput drug screen in 47 multiple myeloma cell lines against the NCATS MIPE library collection: KMS28PE_JCRB cell viability assay (AID 1918983); also: nearly all actives have a fitted effect of over 35% in size; also: potency is read from the fitted curve at half-maximal effect
# RECORDED CONDITIONS: KMS28PE multiple myeloma viability, CellTiter-Glo ATP, 48 h; series mostly up to 45.8 µM
Records with an inconclusive call do not appear. Calls of active or inactive are those of the source. The call rests on the fitted dose curve; in most records, active means well fitted cell-killing curve with a large enough effect; inconclusive means small, poorly fitted or top-dose-only effect, or effect the other way; inactive means no such curve, though single readings can be large or run the other way.
REPORTED METRIC: Potency

Below, each entry is followed by its recorded Potency result.
COMPOUND	OBSERVED RESULT
Cc1cnc(NC(=O)Nc2cc(Br)c(C)cc2OC[C@@H]2CNCCO2)cn1	13.2 µM (active)
COc1cc(O)c2c(c1)C1OC1C[C@H](O)[C@H](O)C(=O)C=CC[C@H](C)OC2=O (stereo partly specified)	5.9 µM (active)
CC(=O)N1CCN(c2ccc(OCc3nn(C)c(C)c3-c3cccc4c(CCCOc5cccc6ccccc56)c(C(=O)O)n(Cc5cccnc5)c34)cc2)CC1	16.6 µM (active)
COc1cc(C[C@@H](CO)[C@H](CO)Cc2ccc(O)c(OC)c2)ccc1O	inactive
CC[C@@]1([C@@H]2O[C@@H]([C@H]3O[C@@](O)(CO)[C@H](C)C[C@H]3C)C[C@H]2C)CC[C@H]([C@]2(C)CC[C@]3(C[C@H](O)[C@@H](C)[C@@H]([C@@H](C)[C@@H](OC)[C@H](C)C(=O)O)O3)O2)O1	0.512 µM (active)
Cc1coc2c1C(=O)C(=O)c1c-2ccc2c(C)cccc12	8.33 µM (active)
C[C@H](CCC(=O)O)[C@H]1CCC2C3C[C@H](O)[C@@H]4C[C@H](O)CC[C@]4(C)C3CC[C@@]21C (stereo partly specified)	inactive
C[C@H](CCC(=O)O)[C@H]1CC[C@H]2[C@@H]3[C@H](O)C[C@@H]4C[C@H](O)CC[C@]4(C)[C@@H]3CC[C@]12C	inactive
O=C(Nc1cccc(Nc2ncc(Br)c(NCCc3cnc[nH]3)n2)c1)N1CCCC1	14.8 µM (active)
Cc1cncc2cccc(S(=O)(=O)N3CCCN(C(=O)CN)C[C@@H]3C)c12	18.7 µM (active)

Any idea what Potency was measured for `CC(C)NC[C@@H](C(=O)N1CCN(c2ncnc3c2[C@H](C)C[C@H]3O)CC1)c1ccc(Cl)cc1` ?
1.48 µM (active)

Item `CS[C@H]1SC[C@@H]2C(=O)N(C)[C@H](C(C)C)C(=O)OC[C@H](NC(=O)c3cnc4ccccc4n3)C(=O)N[C@H](C)C(=O)N(C)[C@@H]1C(=O)N(C)[C@H](C(C)C)C(=O)OC[C@H](NC(=O)c1cnc3ccccc3n1)C(=O)N[C@H](C)C(=O)N2C` has what recorded Potency?
0.003 µM (active)

Report Potency for `N#Cc1c(C2CCNCC2)cc(-c2c(O)cccc2OCC2CC2)nc1N` please.
26.4 µM (active)

Which measured Potency value corresponds to `CCCCC(=O)O[C@]1(C(=O)CO)[C@@H](C)C[C@H]2[C@@H]3CCC4=CC(=O)C=C[C@]4(C)[C@@]3(F)[C@@H](O)C[C@@]21C` ?
inactive

Look up Potency for this compound: `NC(=O)N1CCC(CC(=O)N2CCC([C@H]3c4ncc(Br)cc4CCc4cc(Cl)cc(Br)c43)CC2)CC1`
18.7 µM (active)

What does the data say about its Potency? Entry: `O=C1NC(=O)C(=Cc2ccc3nccc(-c4ccncc4)c3c2)S1`
0.372 µM (active)
